Test system: 996289-038-R-J1-PDC spheroid viability;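 also: spheroids exposed to compounds for seven days before viability read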
Assay: Anticancer human tumor 996289-038-R-J1-PDC patient-derived colon adenocarcinoma cell line growth inhibition [PI3K]
Conditions: curve of first compound; second compound 1 µM; spheroids with HUVEC and MSC
Assign IC50 to each entry below.

Could you report IC50 for every entry in the following list?
1. Cn1ncnc1[C@H]1c2n[nH]c(=O)c3cc(F)cc(c23)N[C@@H]1c1ccc(F)cc1 + CC(Nc1ncnc2nc[nH]c12)c1cc2cccc(Cl)c2c(=O)n1-c1ccccc1
2. C[C@@H](NC(=O)c1ncnc(N)c1Cl)c1ncc(C(=O)Nc2cc(C(F)(F)F)c(Cl)cn2)s1 + COc1c(OCCCN2CCOCC2)ccc2c3n(c(=NC(=O)c4cnc(N)nc4)nc12)CCN3
3. CCN1CCN(Cc2ccc(Nc3ncc(F)c(-c4cc(F)c5nc(C)n(C(C)C)c5c4)n3)nc2)CC1 + CC(Nc1ccc2c(c1)OCCn1cc(N3C(=O)OCC3C(F)F)nc1-2)C(N)=O

Result:
1. > 100 nM
2. < 31.6 nM
3. 53.8 nM
